# ASSAYED_SYSTEM: full-length human tissue factor with C-terminal RGS-His6 tag, stably expressed on CHO-K1 cells (human, UniProt P13726 33-295)
# PROTOCOL_DESCRIPTION: cell-based or functional assay
MEASUREMENT_TYPE: Coagulation (seconds), Ab 10 ug/ml
Write down the numeric answer in s and omit the unit.

// below: answered binders
1. monoclonal anti-TF antibody TF392 (hybridoma cell line TF392, ATCC PTA-5677) (antibody, IgG1, V domains shown) VH: QVQLKESGAELMKPGASVKISCKATGYTFSSYWIEWVKQRPGHGLEWIGEILPGSGSTNYNEKFKGKATFTADTSSNTAYMQLSSLTSEDSAVYYCARDRNGYVNYFDSWGQGTTLTVSS VL: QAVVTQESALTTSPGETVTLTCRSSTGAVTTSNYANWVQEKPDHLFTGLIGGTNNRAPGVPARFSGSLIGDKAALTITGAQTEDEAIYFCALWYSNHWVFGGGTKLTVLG | 210
2. monoclonal anti-TF antibody TF9 (hybridoma cell line TF9, ATCC PTA-5674) (antibody, V domains shown) VH: DVKLQESGPDLVKPSQSLSLTCTVTGYSITSGYSWHWIRQFPGNKLEWMGYIHYSGSTKYNPSLKSRISITRDTSKNQFFLQLNSVTTEDTATYYCARLWSWYFDVWGAGTTVTVSS VL: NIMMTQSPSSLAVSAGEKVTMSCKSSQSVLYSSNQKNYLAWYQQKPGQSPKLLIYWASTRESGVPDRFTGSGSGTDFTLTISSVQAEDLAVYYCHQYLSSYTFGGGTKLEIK | 195

Q: Data request, read-out Coagulation (seconds), Ab 10 ug/ml, for monoclonal anti-TF antibody TF278 (hybridoma cell line TF278, ATCC PTA-5676) (antibody, IgG1, V domains shown) VH: EVQLQQSGAELMKPGASVKISCKATGYTFSSYWIEWVKQRPGHGLEWIGEILPGSASTKYNEKFKGKATFTADTSSNTAYMQLSSLTSEDSAVYYCARDYYYGSSYGFAYWGQGTLVTVSS VL: QAVVTQESALTTSPGETVTLTCRSSTGAVTTSNYANWVQEKPDHLFTGLIGGTNNRGPGVPARFSGSLIGDKAALTITGAQTEDEAVYFCALWYSNHWVFGGGTKLTVLG
A: 190

Q: And what about the binder monoclonal anti-TF antibody TF277 (hybridoma cell line TF277, ATCC PTA-5675) (antibody, IgG1, V domains shown) VH: QVQLQQPGAELVKPGASVKLSCKTSGYTFTSYWMHWVKQRPGQGLEWIGEIDPSDSYTNYNQKFKGKATLTVDKSSSTAYMQLSSLTSEDSAVYYCTYYVNYYAMDYWGQGTSVTVSS VL: QIVLTQSPAIMSASLGEEITLTCSASSSVSYMHWYQQKSGTSPKLLIYSTSNLASGVPSRFSGSGSGTFYSLTISSVEAEDAADYYCHQWSSYPYTFGGGTKLEIK ?
A: 202

Values were extracted from patent US20040229301A1.
